Test: Toxicity in Erythrocyte assessed as concentration required to achieve 100% hemolysis after 4 hrs
Assay type: cell-based
Where a SMILES comes first, the peptide text is derived from it. [ ]: non-standard residue; d: D form. Gly(1-adamantyl) = N[C@H](C(=O)O)C12CC3CC(CC(C3)C1)C2; Orn = NCCC[C@H](N)C(=O)O
Measured log10 of Activity by item
Values reflect log10 of reported Activity (µM).

Completed entries (count: 5):
Compound | log10 of Activity
CC(C)C[C@@H]1NC(=O)[C@H](CCCN)NC(=O)[C@H](C(C)C)NC(=O)[C@@H]2CCCN2C(=O)[C@@H](Cc2ccccc2)NC(=O)[C@H](CC(C)C)NC(=O)[C@H](CCCN)NC(=O)[C@H](C(C)C)NC(=O)[C@H](CCCN)NC(=O)[C@H](CC(C)C)NC(=O)[C@@H]2CCCN2C(=O)[C@@H](Cc2ccccc2)NC(=O)[C@H](C(C)C)NC(=O)[C@H](CCCN)NC1=O (cyclo(L[Orn]V[Orn]L[dF]PV[Orn]L[Orn]V[dF]P)) | 0.59
CC(C)C[C@@H]1NC(=O)[C@H](CCCN)NC(=O)[C@H](C(C)C)NC(=O)[C@H](CCCN)NC(=O)[C@@H]2CCCN2C(=O)[C@@H](Cc2ccccc2)NC(=O)[C@H](CCCN)NC(=O)[C@H](CC23CC4CC(CC(C4)C2)C3)NC(=O)[C@H](CCCN)NC(=O)[C@H](C(C)C)NC(=O)[C@H](CCCN)NC(=O)[C@@H]2CCCN2C(=O)[C@@H](Cc2ccccc2)NC(=O)[C@H](CCCN)NC1=O | 2.10
NCCC[C@@H]1NC(=O)[C@H](CC23CC4CC(CC(C4)C2)C3)NC(=O)[C@H](CCCN)NC(=O)[C@H](C23CC4CC(CC(C4)C2)C3)NC(=O)[C@H](CCCN)NC(=O)[C@@H]2CCCN2C(=O)[C@@H](Cc2ccccc2)NC(=O)[C@H](CCCN)NC(=O)[C@H](CC23CC4CC(CC(C4)C2)C3)NC(=O)[C@H](CCCN)NC(=O)[C@H](C23CC4CC(CC(C4)C2)C3)NC(=O)[C@H](CCCN)NC(=O)[C@@H]2CCCN2C(=O)[C@@H](Cc2ccccc2)NC1=O | 0.89
CC(C)C[C@@H]1NC(=O)[C@H](CCCN)NC(=O)[C@H](C(C)C)NC(=O)[C@H](CCCN)NC(=O)[C@@H]2CCCN2C(=O)[C@@H](Cc2ccccc2)NC(=O)[C@H](CCCN)NC(=O)[C@H](CC23CC4CC(CC(C4)C2)C3)NC(=O)[C@H](CCCN)NC(=O)[C@H](C23CC4CC(CC(C4)C2)C3)NC(=O)[C@H](CCCN)NC(=O)[C@@H]2CCCN2C(=O)[C@@H](Cc2ccccc2)NC(=O)[C@H](CCCN)NC1=O | 1.50
CC(C)C[C@@H]1NC(=O)[C@H](CCCN)NC(=O)[C@H](C23CC4CC(CC(C4)C2)C3)NC(=O)[C@H](CCCN)NC(=O)[C@@H]2CCCN2C(=O)[C@@H](Cc2ccccc2)NC(=O)[C@H](CCCN)NC(=O)[C@H](CC23CC4CC(CC(C4)C2)C3)NC(=O)[C@H](CCCN)NC(=O)[C@H](C23CC4CC(CC(C4)C2)C3)NC(=O)[C@H](CCCN)NC(=O)[C@@H]2CCCN2C(=O)[C@@H](Cc2ccccc2)NC(=O)[C@H](CCCN)NC1=O | 1.19

-- ask Fill in log10 of Activity for record NCCC[C@@H]1NC(=O)[C@H](C23CC4CC(CC(C4)C2)C3)NC(=O)[C@H](CCCN)NC(=O)[C@@H]2CCCN2C(=O)[C@@H](Cc2ccccc2)NC(=O)[C@H](CCCN)NC(=O)[C@H](C23CC4CC(CC(C4)C2)C3)NC(=O)[C@H](CCCN)NC(=O)[C@@H]2CCCN2C(=O)[C@@H](Cc2ccccc2)NC1=O (cyclo([Orn][dF]P[Orn][Gly(1-adamantyl)][Orn][dF]P[Orn][Gly(1-adamantyl)]))
-- reply 2.70

-- ask Give the reported value of log10 of Activity for this record: `CC(C)[C@@H]1NC(=O)[C@H](CCCN)NC(=O)[C@@H]2CCCN2C(=O)[C@@H](Cc2ccccc2)NC(=O)[C@H](CCCN)NC(=O)[C@H](CC23CC4CC(CC(C4)C2)C3)NC(=O)[C@H](CCCN)NC(=O)[C@H](C23CC4CC(CC(C4)C2)C3)NC(=O)[C@H](CCCN)NC(=O)[C@@H]2CCCN2C(=O)[C@@H](Cc2ccccc2)NC(=O)[C@H](CCCN)NC(=O)[C@H](CC23CC4CC(CC(C4)C2)C3)NC(=O)[C@H](CCCN)NC1=O`
-- reply 1.19

-- ask Return reported log10 of Activity. Input compound: `CC(C)C[C@@H]1NC(=O)[C@H](CCCN)NC(=O)[C@H](C23CC4CC(CC(C4)C2)C3)NC(=O)[C@H](CCCN)NC(=O)[C@@H]2CCCN2C(=O)[C@@H](Cc2ccccc2)NC(=O)[C@H](CCCN)NC(=O)[C@H](CC(C)C)NC(=O)[C@H](CCCN)NC(=O)[C@H](C23CC4CC(CC(C4)C2)C3)NC(=O)[C@H](CCCN)NC(=O)[C@@H]2CCCN2C(=O)[C@@H](Cc2ccccc2)NC(=O)[C@H](CCCN)NC1=O`
-- reply 1.50

-- ask For the compound CC(C)C[C@@H]1NC(=O)[C@H](CCCN)NC(=O)[C@H](C(C)C)NC(=O)[C@@H]2CCCN2C(=O)[C@@H](Cc2ccccc2)NC(=O)[C@H](CC(C)C)NC(=O)[C@H](CCCN)NC(=O)[C@H](C(C)C)NC(=O)[C@@H]2CCCN2C(=O)[C@@H](Cc2ccccc2)NC1=O [GRAMICIDIN S] (cyclo(L[dF]PV[Orn]L[dF]PV[Orn])) , report log10 of Activity.
-- reply 1.80

-- ask Give reported log10 of Activity value for `CC(C)C[C@@H]1NC(=O)[C@H](CCCN)NC(=O)[C@H](C23CC4CC(CC(C4)C2)C3)NC(=O)[C@H](CCCN)NC(=O)[C@@H]2CCCN2C(=O)[C@@H](Cc2ccccc2)NC(=O)[C@H](CCCN)NC(=O)[C@H](CC23CC4CC(CC(C4)C2)C3)NC(=O)[C@H](CCCN)NC(=O)[C@H](C(C)C)NC(=O)[C@H](CCCN)NC(=O)[C@@H]2CCCN2C(=O)[C@@H](Cc2ccccc2)NC(=O)[C@H](CCCN)NC1=O`
-- reply 1.50

-- ask Give log10 of Activity for the following compound: `CC(C)[C@@H]1NC(=O)[C@H](CCCN)NC(=O)[C@@H]2CCCN2C(=O)[C@@H](Cc2ccccc2)NC(=O)[C@H](CCCN)NC(=O)[C@H](CC23CC4CC(CC(C4)C2)C3)NC(=O)[C@H](CCCN)NC(=O)[C@H](C(C)C)NC(=O)[C@H](CCCN)NC(=O)[C@@H]2CCCN2C(=O)[C@@H](Cc2ccccc2)NC(=O)[C@H](CCCN)NC(=O)[C@H](CC23CC4CC(CC(C4)C2)C3)NC(=O)[C@H](CCCN)NC1=O`
-- reply 1.50
